- target_entity: PICK1 (protein interacting with C kinase 1), purified recombinant rat (rat) (UniProt Q9EP80)
- assay_notes: fluorescence polarisation; competition (Ki with SEM interval); tracer and conditions not stated
pKi: −log10 of the molar value. Ends that are not written are not given here. * marks the point of attachment. 3‑phenylpropyl = c1ccc(CCC*)cc1; Cyclohexylmethyl = C1CCC(C*)CC1; Bn = c1ccc(C*)cc1
readout_kind: pKi

# binder, observed
rows = [
    ("Et-WLKV [DAT C4 peptide, N-alkylated, R = CH2CH3]", 4.52),
    ("methyl-WLKV [DAT C4 peptide, N-alkylated, R = CH3]", 4.73),
    ("{3‑phenylpropyl}-WLKV [DAT C4 peptide, N-alkylated, R drawn (3-phenylpropyl)]", 4.41),
    ("{n‑butyl}-WLKV [DAT C4 peptide, N-alkylated, R = (CH2)3CH3]", 4.34),
    ("{2‑cyclohexylethyl}-WLKV [DAT C4 peptide, N-alkylated, R drawn (2-cyclohexylethyl)]", 4.50),
    ("Ac-WLKV [DAT C4 peptide, N-acetylated, R = COCH3]", 5.46),
    ("{2‑(naphthyl)ethyl}-WLKV (not fully specified) [DAT C4 peptide, N-alkylated, R drawn (2-naphthylethyl)]", 4.32),
    ("WLKV [DAT C4 peptide, no modification]", 5.24),
    ("Cyclohexylmethyl-WLKV [DAT C4 peptide, N-alkylated, R drawn (cyclohexylmethyl)]", 4.82),
    ("{n‑propyl}-WLKV [DAT C4 peptide, N-alkylated, R = (CH2)2CH3]", 4.33),
    ("Bn-WLKV [DAT C4 peptide, N-alkylated, R drawn (benzyl)]", 4.61),
    ("{2‑phenylethyl}-WLKV [DAT C4 peptide, N-alkylated, R drawn (2-phenylethyl)]", 4.58),
]
